// data source = PubChem BioAssay AID1961

experiment notes: GPR55 agonists via beta-arrestin recruitment, primary screen, imaging, U2OS cells, beta-arrestin-GFP redistribution (AID 1961);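 further: U2OS osteosarcoma cells stably expressing GPR55 and beta-arrestin-GFP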
stated conditions: measured here: cytotoxicity, cells analyzed, at 10 µM
Hit rate of the full screen: of about 290,000 compounds, about 140 (0.048%) were called active. Only a selection was taken, and actives are over-represented in it overall.
quantity kind: cell count (cells)
Number only, in cells; omit the unit.

Completed entries (count: 5):
chem smiles | cell count [cells]
CCCN1C(=O)/C(=C2/C=Cc3ccccc3N2CC)SC1=S | 237
Cc1ccc(N(CC(=O)NC2CCCC2)C(=O)Cn2nnc(-c3ccccc3F)n2)cc1 | 388
Cc1cccc(N(CC(=O)Nc2c(C)n(C)n(-c3ccccc3)c2=O)S(C)(=O)=O)c1C | 361
CC(C)c1ccc(/C=C/C(=O)NC2=NCCS2)cc1 | 384
N#Cc1ccccc1NC(=O)CC1CCCCC1 | 377

Switching to the query record.
Enquiry: Give a short answer stating reported cell count for "CCOc1ccc(S(=O)(=O)Nc2ccc(C(=O)N3CCCC3)cc2)cc1C(N)=O" .
Return: 319
